# Tested on: HL60/Nov acute myeloid leukemia cells
# ASSAY TEXT: Leukemia cell viability, HL60/Nov
# Type: cell-based, human
# CONDITION SET: Homo sapiens, HL-60, 72 h, read-out: IC50 for cell viability
OBSERVABLE: IC50 (µM)
Kindly provide the numeric value in µM only, without the unit symbol.

Kindly note the recorded IC50 for COc1cc([C@@H]2c3cc4c(cc3[C@H](O)[C@H]3COC(=O)[C@@H]23)OCO4)cc(OC)c1OC [Picropodophyllin, picropodophyllin] , which is 0.11

###

# ASSAY TARGET: IGF-1R (Homo sapiens, UniProt P08069)
# Sequence (P08069 31-1367): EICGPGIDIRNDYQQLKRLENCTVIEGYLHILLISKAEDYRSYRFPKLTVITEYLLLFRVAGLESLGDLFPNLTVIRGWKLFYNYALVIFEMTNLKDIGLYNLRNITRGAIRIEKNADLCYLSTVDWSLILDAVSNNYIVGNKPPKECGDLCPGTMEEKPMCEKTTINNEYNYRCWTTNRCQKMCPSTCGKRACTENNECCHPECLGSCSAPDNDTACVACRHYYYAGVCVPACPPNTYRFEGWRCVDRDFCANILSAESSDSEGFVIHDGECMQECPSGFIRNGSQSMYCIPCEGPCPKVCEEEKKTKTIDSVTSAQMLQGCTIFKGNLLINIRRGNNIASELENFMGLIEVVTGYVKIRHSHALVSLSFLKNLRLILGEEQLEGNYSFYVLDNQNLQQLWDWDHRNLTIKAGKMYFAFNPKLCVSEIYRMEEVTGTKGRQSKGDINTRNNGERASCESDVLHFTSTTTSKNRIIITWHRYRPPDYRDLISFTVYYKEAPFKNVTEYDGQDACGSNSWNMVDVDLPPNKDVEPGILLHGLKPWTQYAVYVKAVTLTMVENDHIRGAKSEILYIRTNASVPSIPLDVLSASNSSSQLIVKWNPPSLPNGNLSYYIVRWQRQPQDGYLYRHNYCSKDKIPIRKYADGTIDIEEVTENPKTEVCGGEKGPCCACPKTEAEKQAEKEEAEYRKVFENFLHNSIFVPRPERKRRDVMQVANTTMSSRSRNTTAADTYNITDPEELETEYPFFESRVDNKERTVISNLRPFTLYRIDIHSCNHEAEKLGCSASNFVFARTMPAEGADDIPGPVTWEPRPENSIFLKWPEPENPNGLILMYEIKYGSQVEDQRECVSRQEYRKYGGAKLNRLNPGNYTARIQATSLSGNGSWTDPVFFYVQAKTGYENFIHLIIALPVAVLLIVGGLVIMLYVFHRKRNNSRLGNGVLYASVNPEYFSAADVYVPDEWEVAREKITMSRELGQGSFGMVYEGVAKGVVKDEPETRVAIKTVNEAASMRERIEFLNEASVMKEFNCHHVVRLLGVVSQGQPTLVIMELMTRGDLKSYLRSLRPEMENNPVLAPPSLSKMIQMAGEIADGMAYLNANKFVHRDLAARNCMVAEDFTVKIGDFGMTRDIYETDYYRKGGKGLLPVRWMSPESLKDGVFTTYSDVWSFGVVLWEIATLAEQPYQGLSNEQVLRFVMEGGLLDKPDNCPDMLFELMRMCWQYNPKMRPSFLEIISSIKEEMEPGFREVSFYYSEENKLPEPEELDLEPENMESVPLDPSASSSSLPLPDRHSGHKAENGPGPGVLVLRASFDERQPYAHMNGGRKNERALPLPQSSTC
# ASSAY TEXT: IGF-1R phosphorylation in various malignant cell types (EC50)
# Assay type: cell-based
# Parameters: endogenous in cells; host or cells: 12 malignant cell lines (e.g. SK-MEL-2, SK-MEL-5, SK-MEL-28)
# CONDITION SET: DWB melanoma, 1 h
OBSERVABLE: EC50 (nM)
Answer in nM, number only, no unit symbol.

Kindly note the recorded EC50 for COc1cc([C@@H]2c3cc4c(cc3[C@H](O)[C@H]3COC(=O)[C@H]23)OCO4)cc(OC)c1OC , which is 30

###

# Test system: HL60/0 acute myeloid leukemia cells
# ASSAY TEXT: Leukemia cell viability, HL60/0
# Format: cell-based, human
# CONDITION SET: Homo sapiens, HL-60; HL60, 72 h; read-out: IC50 for cell viability
OBSERVABLE: IC50 (nM)
Unit nM implied. Number only.

So for COc1cc([C@@H]2c3cc4c(cc3[C@H](O)[C@H]3COC(=O)[C@@H]23)OCO4)cc(OC)c1OC , the logged IC50 turned out to be 170

###

# ASSAY TARGET: UniProtKB P08069
# ASSAY TEXT: IGF-1R phosphorylation in various malignant cell types (EC50)
# Assay type: cell-based
# Parameters: endogenous in cells; host or cells: 12 malignant cell lines (e.g. SK-MEL-2, SK-MEL-5, SK-MEL-28)
# CONDITION SET: PC-3 prostate cancer, 1 h
OBSERVABLE: EC50 (nM)
The answer is to be given in nM; state only the numeric part.

# CHEMICAL STRUCTURE, EC50 [nM]
measured = [
    ("COc1cc([C@@H]2c3cc4c(cc3[C@H](O)[C@H]3COC(=O)[C@@H]23)OCO4)cc(OC)c1OC", 90),
]

EC50 reading for COc1cc([C@@H]2c3cc4c(cc3[C@H](O)[C@H]3COC(=O)[C@H]23)OCO4)cc(OC)c1OC : 60

###

# ASSAY TARGET: IGF-1R (Homo sapiens, UniProt P08069)
# ASSAY TEXT: IGF-1R tyrosine autophosphorylation, sandwich ELISA, cell-free
# Type: biochemical
# Set-up: expressed in transfected cells; host or cells: P6 cell line (murine fibroblasts overexpressing human IGF-1R); receptor captured on plates with an antibody to the beta subunit
# CONDITION SET: cell-free, FIG. 4; read-out: IC50, autophosphorylation of IGF-1R
# Experimental: IGF-1R tyrosine autophosphorylation was analysed by a sandwich ELISA assay. Briefly, 96-well plates (Immunolon, Nunc) were coated overnight at 4° C. with 1 μg/well of the monoclonal antibody Ab-5 (LabVision) to the IGF-1R beta subunit. The plates were blocked with 1% BSA in PBS Tween for 1 h, then 80 µg/well of total protein lysate from the P6 cell line was added. […] After spectrophotometry the IC50 values of inhibitors were determined using the Regression function of Statistica program. […]
pIC50: −log10 of the molar value.
OBSERVABLE: pIC50

So, COc1cc([C@@H]2c3cc4c(cc3[C@H](O)[C@H]3COC(=O)[C@@H]23)OCO4)cc(OC)c1OC ? Its pIC50 was ~9.00
